SUBJECT OF TEST: Genome polyprotein (dengue virus type 2)
ASSAY TEXT: Inhibition of Dengue virus 2 NS2B-NS3 protease using Abz-Nle-Lys-Arg-Arg-Ser-3-(NO2)Tyr as substrate preincubated for 15 mins followed by addition of substrate measured after 15 mins by fluorescence assay
Where a SMILES comes first, the peptide text is derived from it. [ ]: non-standard residue; d: D form. The star is where a group is joined. Nle = CCCC[C@H](N)C(=O)O; Bz = O=C(c1ccccc1)*

{"COMPOUND": "CCCC[C@H](NC(=O)[C@H](CCCCN)NC(=O)[C@H](CCCNC(=N)N)NC(=O)c1ccccc1)C(N)=O (Bz-Arg-Lys-[Nle]-NH2)", "MEASUREMENT UNIT": "µM", "Ki": 15.6}
{"COMPOUND": "CCCC[C@H](NC(=O)[C@H](CCCCN)NC(=O)[C@H](CCCNC(=N)N)NC(=O)c1ccc(/C=C(\\C#N)C(=O)NC2CC2)cc1)C(N)=O", "MEASUREMENT UNIT": "µM", "Ki": 4.9}

* * *

ASSAY TEXT: Oral bioavailability in AG129 mouse plasma at 50 mg/kg/day after 1 to 24 hrs by LC-MS/MS
Format: ADME, organism-based

{"TEST SMILES": "Nc1c(C(=O)Nc2nnc(-c3ccccc3)s2)sc2nc3c(cc12)CCCCC3", "bioavailability / %": 9.1}

* * *

SUBJECT OF TEST: Genome polyprotein (dengue virus type 2)
ASSAY TEXT: Inhibition of Dengue virus 2 Taiwanese PL046 NS2B-NS3 protease using Ac-TTSTRR-pNA as substrate preincubated for 10 mins followed by addition of substrate measured after 2 hrs
pIC50: −log10 of the molar value.

{"TEST SMILES": "CCCCCCCCCCCCCCCC[N+](CC)(CO)CO", "SUBJECT OF TEST": "Genome polyprotein (dengue virus type 2)", "pIC50": 4.65}

* * *

SUBJECT OF TEST: Genome polyprotein (dengue virus type 2, UniProt P29990)
Sequence (P29990 1346-1475 limits assumed): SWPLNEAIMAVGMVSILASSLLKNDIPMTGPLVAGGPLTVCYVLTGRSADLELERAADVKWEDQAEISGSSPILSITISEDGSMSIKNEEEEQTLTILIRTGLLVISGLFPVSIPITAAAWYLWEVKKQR
Sequence (P29990 1476-2093 limits assumed): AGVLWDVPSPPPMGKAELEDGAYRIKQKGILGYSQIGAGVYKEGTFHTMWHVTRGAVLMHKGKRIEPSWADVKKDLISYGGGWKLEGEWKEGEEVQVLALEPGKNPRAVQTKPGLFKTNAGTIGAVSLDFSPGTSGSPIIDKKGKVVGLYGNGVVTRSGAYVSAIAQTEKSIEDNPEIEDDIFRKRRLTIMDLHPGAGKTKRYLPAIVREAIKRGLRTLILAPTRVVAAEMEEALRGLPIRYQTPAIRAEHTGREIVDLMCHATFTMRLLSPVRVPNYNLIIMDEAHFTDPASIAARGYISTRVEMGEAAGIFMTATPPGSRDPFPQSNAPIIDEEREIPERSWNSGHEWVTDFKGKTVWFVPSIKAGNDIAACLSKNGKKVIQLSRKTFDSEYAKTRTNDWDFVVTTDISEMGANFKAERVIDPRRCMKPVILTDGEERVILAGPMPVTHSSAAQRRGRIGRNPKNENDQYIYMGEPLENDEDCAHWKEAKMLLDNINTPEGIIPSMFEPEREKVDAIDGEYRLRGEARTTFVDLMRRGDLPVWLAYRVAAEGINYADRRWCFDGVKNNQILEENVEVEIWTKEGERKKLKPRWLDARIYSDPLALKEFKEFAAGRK
ASSAY TEXT: Mixed noncompetitive inhibition of the Dengue virus 2 NS2B-NS3 protease expressed in Escherichia coli using Boc-GRR-AMC as substrate assessed as enzyme-inhibitor complex after 30 mins by spectrofluorometry
MEASUREMENT KIND: Ki (µM)

{"TEST SMILES": "O=C1Cc2ccc(F)cc2C[C@@H]1C1=Cc2ccc(F)cc2CC1", "MEASURED VALUE": 7}

* * *

Test system: dengue virus type 2
ASSAY TEXT: Antiviral activity against Dengue virus 2 NGC infected in african green monkey Vero cells assessed as reduction in virus replication after 72 hrs by foci-forming assay
Assay type: functional, organism-based

{"TEST SMILES": "Cc1ccc(S(=O)(=O)Nc2cc(SCC(=O)O)c(O)c3ccccc23)cc1[N+](=O)[O-]", "MEASUREMENT UNIT": "µM", "EC50": 0.98}

* * *

SUBJECT OF TEST: Genome polyprotein (dengue virus type 2)
ASSAY TEXT: Inhibition of Dengue virus 1 NS2B-NS3 protease expressed in Escherichia coli using Abz-RRRRSAG-nY-NH2 as substrate preincubated for 20 mins followed by addition of substrate measured after 60 mins by fluorescence assay
Design: species or system dengue virus type 1
pKi: −log10 of the molar value. Where a SMILES comes first, the peptide text is derived from it.

{"COMPOUND": "NC(=O)[C@H](Cc1c[nH]c2ccccc12)NC(=O)[C@H](CS)NC(=O)[C@H](Cc1ccc(O)cc1)NC(=O)[C@@H](N)Cc1c[nH]c2ccccc12 (H-WYCW-NH2)", "pKi": 5.38}

* * *

System: dengue virus type 2
ASSAY TEXT: Antiviral activity against Dengue virus 2 infected in BHK21 cells assessed after 3 to 5 days by crystal violet staining based plaque assay
Type: functional, organism-based
STUDY CONDITIONS: BHK-21

{"COMPOUND": "CCN(CC)Cc1cc(Nc2ccnc3cc(Cl)ccc23)ccc1O [AMODIAQUINE]", "SUBJECT OF TEST": "dengue virus type 2", "EC50, nM": 1080}

* * *

Test system: dengue virus type 3
ASSAY TEXT: Antiviral activity against Dengue virus 3 by CFI assay
Format: functional, organism-based
pEC50: −log10 of the molar value.
MEASUREMENT KIND: pEC50

{"RECORD SEQUENCE": "IVERMECTIN", "MEASURED VALUE": "5.80 to 5.92"}

* * *

ASSAY TEXT: Cytotoxicity against african green monkey Vero cells after 72 hrs by MTT assay
Format: cell-based
STUDY CONDITIONS: chlorocebus sabaeus

{"TEST SMILES": "Cc1ccc(S(=O)(=O)Nc2cc(SCC(=O)O)c(O)c3ccccc23)cc1[N+](=O)[O-]", "CC50 at 72 h (µM)": 67.3}

* * *

ASSAY TEXT: Cytotoxicity against african green monkey Vero cells
Assay type: cell-based
STUDY CONDITIONS: chlorocebus sabaeus
MEASUREMENT KIND: CC50

{"TEST SMILES": "COCCCCCCCCCN1C[C@H](O)[C@@H](O)[C@H](O)[C@H]1CO", "MEASURED VALUE": "> 500 µM"}

* * *

Listed next: entries and their corresponding EC50.
Test system: dengue virus type 2
ASSAY TEXT: Antiviral activity against Dengue virus 2 16681 infected in human HuH7 cells after 72 hrs by indirect immunofluorescent flow cytometry
Assay type: functional, organism-based
STUDY CONDITIONS: Dengue virus, 16681, Huh-7, 72 h

{"MOLECULE": "NC(=O)c1ncn([C@@H]2O[C@H](CO)[C@@H](O)[C@H]2O)n1 [RIBAVIRIN]", "SUBJECT OF TEST": "dengue virus type 2", "MEASUREMENT UNIT": "µM", "EC50": 40}
{"MOLECULE": "COc1c(C)c2c(c(O)c1C/C=C(\\C)CCC(=O)O)C(=O)OC2 [MYCOPHENOLIC ACID]", "SUBJECT OF TEST": "dengue virus type 2", "MEASUREMENT UNIT": "µM", "EC50": 1.9}

* * *

ASSAY TEXT: Drug uptake in C57BL/6 mouse kidney infected with Ebola virus at 3 mg/kg, iv administered 2 hrs prior to viral infection measured on day 2 and 5 post viral infection by mass spectrometry
Assay type: ADME, organism-based
STUDY CONDITIONS: read-out: Drug uptake

{"TEST SMILES": "Cc1cc(NCCCN(C)C)c2ccc3c(ccc4c(NCCCN(C)C)cc(C)nc43)c2n1", "concentration at 2 h, ng/g": 43100}

* * *

ASSAY TEXT: Selectivity index, ratio of CC50 for BHK21 cells to EC50 for Dengue virus 2 infected in BHK21 cells
Assay type: toxicity, cell-based
STUDY CONDITIONS: hamster, read-out: Ratio CC50/EC50
MEASUREMENT KIND: selectivity ratio

{"COMPOUND": "Cc1cc(N2C(=O)C(O)=C(C(=O)c3ccc(C)o3)C2c2cc(Cl)cc(Cl)c2)no1 (stereo unspecified)", "MEASURED VALUE": 4.5}

* * *

Test system: dengue virus type 4
ASSAY TEXT: Antiviral activity against Dengue virus 4 by CFI assay
Format: functional, organism-based
pEC50: −log10 of the molar value.
MEASUREMENT KIND: pEC50

{"RECORD SEQUENCE": "IVERMECTIN", "SUBJECT OF TEST": "dengue virus type 4", "MEASUREMENT KIND": "pEC50", "MEASURED VALUE": "5.80 to 5.92"}

* * *

ASSAY TEXT: Cytotoxicity against BHK21 cells assessed as cell viability after 48 hrs by Celltiter-Glo luminescent assay
Type: cell-based, Mesocricetus auratus, BHK-21
STUDY CONDITIONS: hamster
MEASUREMENT KIND: CC50 at 48 h

{"TEST SMILES": "Cc1cc(N2CCN(C)CC2)ccc1NC(=O)c1c2c(nc3ccccc13)CCN(Cc1ccccc1)C2", "MEASURED VALUE": "> 300 µM"}

Taken from ChEMBL document CHEMBL4431301.
